Quick note: these are pIC50 numbers for system: PIK3CD (Human) (UniProt O00329)
Sequence (O00329 whole entry, looked up): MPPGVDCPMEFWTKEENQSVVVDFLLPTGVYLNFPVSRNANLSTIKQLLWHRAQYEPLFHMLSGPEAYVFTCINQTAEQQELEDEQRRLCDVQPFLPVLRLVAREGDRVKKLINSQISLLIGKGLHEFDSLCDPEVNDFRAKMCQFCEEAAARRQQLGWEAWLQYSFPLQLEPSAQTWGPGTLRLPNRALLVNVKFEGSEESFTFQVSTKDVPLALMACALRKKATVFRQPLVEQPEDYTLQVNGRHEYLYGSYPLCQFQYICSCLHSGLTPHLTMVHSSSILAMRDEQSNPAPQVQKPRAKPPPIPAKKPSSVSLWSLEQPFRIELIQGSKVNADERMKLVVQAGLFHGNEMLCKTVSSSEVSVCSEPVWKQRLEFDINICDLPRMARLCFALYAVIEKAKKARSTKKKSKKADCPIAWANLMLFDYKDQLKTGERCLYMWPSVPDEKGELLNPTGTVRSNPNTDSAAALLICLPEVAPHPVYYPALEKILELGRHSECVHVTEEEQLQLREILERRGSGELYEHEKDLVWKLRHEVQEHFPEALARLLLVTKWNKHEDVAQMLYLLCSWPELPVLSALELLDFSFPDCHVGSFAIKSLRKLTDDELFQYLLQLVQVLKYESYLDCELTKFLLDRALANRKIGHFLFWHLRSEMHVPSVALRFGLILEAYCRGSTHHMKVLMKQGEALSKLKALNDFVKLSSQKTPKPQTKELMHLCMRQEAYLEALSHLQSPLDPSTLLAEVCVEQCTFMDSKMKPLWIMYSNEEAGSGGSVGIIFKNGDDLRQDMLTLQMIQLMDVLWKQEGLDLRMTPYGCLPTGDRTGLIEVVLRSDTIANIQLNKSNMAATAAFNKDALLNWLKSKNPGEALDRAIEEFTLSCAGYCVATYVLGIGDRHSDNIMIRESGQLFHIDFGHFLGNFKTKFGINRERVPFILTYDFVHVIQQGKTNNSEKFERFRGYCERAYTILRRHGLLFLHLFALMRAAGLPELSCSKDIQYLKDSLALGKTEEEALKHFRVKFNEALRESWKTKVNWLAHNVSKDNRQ
Scale for pIC50: -log10 of concentration given in mol/L; no unit attached.

A selection of reference data follows.
INSERT INTO assay_data (structure_smiles, recorded_measurement) VALUES
  ('CCn1ncc(-c2nc3c(O[C@H]4CCN(C(=O)c5c(C)nn(C)c5C)C4)ncnc3n2C)c1C', 7.13),
  ('CCn1ncc(-c2nc3c(O[C@H]4CCN(C(=O)c5oncc5C)C4)ncnc3n2C)c1C', 8.29),
  ('CCn1ncc(-c2nc3c(O[C@H]4CCN(C(=O)NC5CCCCC5)C4)ncnc3n2C)c1C', 6.64),
  ('CCn1ncc(-c2nc3c(O[C@H]4CCN(C(=O)C(C)(C)C)C4)ncnc3n2C)c1C', 7.66);

Switching to the query record.
# input Dear colleague, I am looking for the recorded pIC50 of the following compound: "Cn1c(-c2ccc(-n3ccnc3)cc2)nc2c(O[C@H]3CCN(C(=O)OC(C)(C)C)C3)ncnc21"
# output 6.48

----------
Quick note: these are IC50 numbers for system: PIK3CD (Human) (UniProt O00329)
API: value field is a number in nM; no unit string.

A selection of reference data follows.
INSERT INTO results (compound, system_tested, recorded_measurement) VALUES
  ('CCn1c(-c2ccc(C(F)(F)F)nc2)nc2c(O[C@H]3CCN(C(=O)C4CC4)C3)ncnc21', 'PIK3CD (Human) (UniProt O00329)', 3),
  ('CCC(=O)N1CC[C@H](Oc2ncnc3c2nc(-c2cnn(CC)c2C)n3C)C1', 'PIK3CD (Human) (UniProt O00329)', 12),
  ('Cn1c(-c2ccc(O)cc2)nc2c(O[C@H]3CCN(C(=O)OC(C)(C)C)C3)ncnc21', 'PIK3CD (Human) (UniProt O00329)', 98),
  ('CCn1ncc(-c2nc3c(O[C@H]4CCN(c5cc(-n6cccn6)ncn5)C4)ncnc3n2C)c1C', 'PIK3CD (Human) (UniProt O00329)', 216),
  ('CCC(=O)N1CC[C@H](Oc2ncnc3c2nc(-c2ccc4cc[nH]c4c2)n3C)C1', 'PIK3CD (Human) (UniProt O00329)', 120);

# input Dear colleague, I am looking for the recorded IC50 of the following compound: "CCn1ncc(-c2nc3c(O[C@H]4CCN(C(=O)c5c(C)noc5C)C4)ncnc3n2C)c1C"
# output 88

# input Please give the result for "CCC(=O)N1CC[C@H](Oc2ncnc3c2nc(-c2cnn(-c4ccccc4)c2)n3C)C1" too.
# output 6.5

# input Please give the result for "CCC(=O)N1CC[C@H](Oc2ncnc3c2nc(-c2ccc(Cl)nc2)n3C)C1" too.
# output 16

# input Please give the result for CCn1ncc(-c2nc3c(OC4CCN(C(=O)C5CCCC5)C4)ncnc3n2C)c1C (centres undefined) too.
# output 9.4

----------
Quick note: these are IC50 numbers for system: PIK3CD (Human)
API: value field is a number in nM; no unit string.

A selection of reference data follows.
INSERT INTO measurements (structure_smiles, units_label, recorded_measurement) VALUES
  ('CCn1c(-c2cnc(OC)c(C#N)c2)nc2c(O[C@H]3CCN(C(=O)C4CC4)C3)ncnc21', 'nM', 2.4),
  ('CCn1ncc(-c2nc3c(O[C@H]4CCN(C(=O)c5cnn(C)c5)C4)ncnc3n2C)c1C', 'nM', 14),
  ('CCC(=O)N1CC[C@H](Oc2ncnc3c2nc(-c2cnc(OC)c(F)c2)n3C)C1', 'nM', 9.3);

Switching to the query record.
# input Lab note: need IC50 with PIK3CD (Human) for entry "CCn1c(-c2ccc(OC)nc2)nc2c(O[C@H]3CCN(C(=O)C4CCOCC4)C3)ncnc21" , please look it up.
# output 1.6
